Test: AUC (0 to 24 hrs) in HIV infected patient at 300 mg BID by HPLC/MS/MS analysis
Assay type: ADME, organism-based
Parameters: time < 24 hr, dose 300 mg
Conditions: human, plasma
value-type: AUC at 24 h (ng·h/mL)
# value in ng·h/mL; strip the unit string

// query State its AUC at 24 h for this molecule: Nc1nc(NC2CC2)c2ncn([C@H]3C=C[C@@H](CO)C3)c2n1
// result 7900

====

Assay: Cmax in HIV infected patient at 300 mg BID by HPLC/MS/MS analysis
Assay type: ADME, organism-based
Set-up: dose 300 mg
Conditions: human, in vivo
value-type: Cmax
Provide a numeric answer, followed by its unit.

// query Give me measured Cmax, please, for this compound: Nc1nc(NC2CC2)c2ncn([C@H]3C=C[C@@H](CO)C3)c2n1
// result 1840 ng/mL

====

Assay: AUC (0 to 24 hrs) in HIV infected patient at 600 mg QD by HPLC/MS/MS analysis
Format: ADME, organism-based
Design: dose 600 mg, time < 24 hr
Conditions: human, plasma
value-type: AUC at 24 h
Express the reported value numerically, then name its unit.

// query Recall and state the measured AUC at 24 h for Nc1nc(NC2CC2)c2ncn([C@H]3C=C[C@@H](CO)C3)c2n1 [ABACAVIR] .
// result 8520 ng·h/mL

====

Species on record: Homo sapiens
Test: Cmax in HIV infected patient assessed as carbovir-triphosphate level per million cells at 300 mg BID by HPLC/MS/MS analysis
Type: ADME, organism-based
Set-up: dose 300 mg
Details: in vivo
value-type: Cmax (fmol/10^6 cells)
Just the number in fmol/10^6 cells, nothing appended.

// query Report Cmax, nothing else, for this compound: Nc1nc(=O)c2ncn([C@H]3C=C[C@@H](COP(=O)(O)OP(=O)(O)OP(=O)(O)O)C3)c2[nH]1 [CARBOVIR 5'-TRIPHOSPHATE, (-)-]
// result 58.5

====

Species on record: Homo sapiens
Experiment: Cmax in HIV infected patient assessed as carbovir-triphosphate level per million cells at 300 mg BID by HPLC/MS/MS analysis
Assay type: ADME, organism-based
Design: dose 300 mg
Settings: in vivo
value-type: Cmax (fmol/10^6 cells)
Quick note: give the figure in fmol/10^6 cells, leave out the unit.

// query // fetch Cmax given entry Nc1nc(=O)c2ncn([C@H]3C=C[C@@H](COP(=O)(O)OP(=O)(O)OP(=O)(O)O)C3)c2[nH]1 [CARBOVIR 5'-TRIPHOSPHATE, (-)-]
// result 82.5

====

Tested on: Homo sapiens
Test: Drug level at end of dosing interval in HIV infected patient assessed as carbovir-triphosphate level per million cells at 300 mg BID by HPLC/MS/MS analysis
Format: ADME, organism-based
Details: in vivo
value-type: Ct (fmol/10^6 cells)
Field format: number, assumed fmol/10^6 cells, no unit text.

// query Write down the reported Ct (system: Homo sapiens) of Nc1nc(=O)c2ncn([C@H]3C=C[C@@H](COP(=O)(O)OP(=O)(O)OP(=O)(O)O)C3)c2[nH]1 [CARBOVIR 5'-TRIPHOSPHATE, (-)-]
// result 18.7

====

Organism: Homo sapiens
Assay: Cmax in HIV infected patient assessed as carbovir-triphosphate level per million cells at 600 mg QD by HPLC/MS/MS analysis
Format: ADME, organism-based
Parameters: dose 600 mg
Settings: in vivo
value-type: Cmax (fmol/10^6 cells)
// note: answer is a bare numeric in fmol/10^6 cells

// query Return reported Cmax. Input compound: Nc1nc(=O)c2ncn([C@H]3C=C[C@@H](COP(=O)(O)OP(=O)(O)OP(=O)(O)O)C3)c2[nH]1 [CARBOVIR 5'-TRIPHOSPHATE, (-)-]
// result 86.5

====

Experiment: Cmax in HIV infected patient at 300 mg BID by HPLC/MS/MS analysis
Type: ADME, organism-based
Design: dose 300 mg
Details: male, human, in vivo
value-type: Cmax (ng/mL)
Form entry: value (ng/mL) — number only.

// query // Input: Nc1nc(NC2CC2)c2ncn([C@H]3C=C[C@@H](CO)C3)c2n1 . Output its Cmax only.
// result 1590

====

Species: Homo sapiens
Assay: Cmax in HIV infected patient assessed as carbovir-triphosphate level per million cells at 600 mg QD by HPLC/MS/MS analysis
Assay type: ADME, organism-based
Parameters: dose 600 mg
Settings: in vivo
value-type: Cmax (fmol/10^6 cells)
Kindly answer with a numeric value in fmol/10^6 cells, unit omitted.

// query Hello, please tell me recorded Cmax for this one: Nc1nc(=O)c2ncn([C@H]3C=C[C@@H](COP(=O)(O)OP(=O)(O)OP(=O)(O)O)C3)c2[nH]1 [CARBOVIR 5'-TRIPHOSPHATE, (-)-]
// result 198

====

Experiment: Cmax in HIV infected patient at 600 mg QD by HPLC/MS/MS analysis
Type: ADME, organism-based
Design: dose 600 mg
Details: female, human, in vivo
value-type: Cmax (ng/mL)
Please give a number only; it is taken to be in ng/mL.

// query For the molecule Nc1nc(NC2CC2)c2ncn([C@H]3C=C[C@@H](CO)C3)c2n1 , give its measured Cmax value.
// result 4830

====

Test: AUC (0 to 24 hrs) in HIV infected patient at 300 mg BID by HPLC/MS/MS analysis
Type: ADME, organism-based
Set-up: time < 24 hr, dose 300 mg
Conditions: male, human, plasma
value-type: AUC at 24 h (ng·h/mL)
Respond numerically; units are ng·h/mL and should not be typed.

// query Hello, please tell me recorded AUC at 24 h for this one: Nc1nc(NC2CC2)c2ncn([C@H]3C=C[C@@H](CO)C3)c2n1
// result 6740

====

Species: Homo sapiens
Experiment: Cmax in HIV infected patient assessed as carbovir-triphosphate level per million cells at 600 mg QD by HPLC/MS/MS analysis
Format: ADME, organism-based
Design: dose 600 mg
Conditions: in vivo
value-type: Cmax (fmol/10^6 cells)
The response must be a number in fmol/10^6 cells with no trailing unit.

// query Look up and state reported Cmax for Nc1nc(=O)c2ncn([C@H]3C=C[C@@H](COP(=O)(O)OP(=O)(O)OP(=O)(O)O)C3)c2[nH]1 [CARBOVIR 5'-TRIPHOSPHATE, (-)-]
// result 114

====

Assay: AUC (0 to 24 hrs) in HIV infected patient at 600 mg QD by HPLC/MS/MS analysis
Type: ADME, organism-based
Parameters: dose 600 mg, time < 24 hr
Settings: female, human, plasma
value-type: AUC at 24 h
Answer format reminder: number followed by unit.

// query Quote AUC at 24 h reported for Nc1nc(NC2CC2)c2ncn([C@H]3C=C[C@@H](CO)C3)c2n1 please.
// result 11700 ng·h/mL

====

Test: Cmax in HIV infected patient at 600 mg QD by HPLC/MS/MS analysis
Assay type: ADME, organism-based
Set-up: dose 600 mg
Settings: human, in vivo
value-type: Cmax (ng/mL)
Dear colleague, please return just the value in ng/mL, with no unit written.

// query Tell us which Cmax value is on record for Nc1nc(NC2CC2)c2ncn([C@H]3C=C[C@@H](CO)C3)c2n1
// result 3850

====

Test: Cmax in HIV infected patient at 600 mg QD by HPLC/MS/MS analysis
Assay type: ADME, organism-based
Set-up: dose 600 mg
Details: male, human, in vivo
value-type: Cmax (ng/mL)
Just the number please, in ng/mL, no unit attached.

// query State, in one line, measured Cmax of Nc1nc(NC2CC2)c2ncn([C@H]3C=C[C@@H](CO)C3)c2n1
// result 3430

====

System: Homo sapiens
Test: Drug level at end of dosing interval in HIV infected patient assessed as carbovir-triphosphate level per million cells at 300 mg BID by HPLC/MS/MS analysis
Format: ADME, organism-based
Conditions: in vivo
value-type: Ct (fmol/10^6 cells)
Kindly answer with a numeric value in fmol/10^6 cells, unit omitted.

// query Quote Ct reported for Nc1nc(=O)c2ncn([C@H]3C=C[C@@H](COP(=O)(O)OP(=O)(O)OP(=O)(O)O)C3)c2[nH]1 [CARBOVIR 5'-TRIPHOSPHATE, (-)-] please.
// result 37.2
